Numbers sourced from ChEMBL document CHEMBL2202989.

# GI50 listing for each entry below
# Test system: MIA PaCa-2
# test-protocol: Growth inhibition of human MIAPaCa2 cells after 48 hrs by SRB assay
# Format: functional
# run-conditions: MIA PaCa-2, 48 h
measured-property: GI50 (µM)

compound: c1ccc(C(c2ccc(CN3CCCCC3)cc2)C23CC4CC(CC(C4)C2)C3)cc1 (centres undefined)
quantitative-result: 7.98
--
compound: c1ccc(C(c2ccc(CCN3CCCCC3)cc2)C23CC4CC(CC(C4)C2)C3)cc1 (centres undefined)
quantitative-result: 35.5
--
compound: O=c1[nH]cc(F)c(=O)[nH]1
quantitative-result: 30.6
--
compound: CN1CCN(Cc2ccc(C(c3ccccc3)C34CC5CC(CC(C5)C3)C4)cc2)CC1 (centres undefined)
quantitative-result: 3.61
